# Assayed target: T1, Human CD19-his protein (human, UniProt P15391 20-291)
# T1 construct: bought protein; also called human CD19 protein; recombinant human CD19-His; not shown: His tag
# T1 sequence (looked up): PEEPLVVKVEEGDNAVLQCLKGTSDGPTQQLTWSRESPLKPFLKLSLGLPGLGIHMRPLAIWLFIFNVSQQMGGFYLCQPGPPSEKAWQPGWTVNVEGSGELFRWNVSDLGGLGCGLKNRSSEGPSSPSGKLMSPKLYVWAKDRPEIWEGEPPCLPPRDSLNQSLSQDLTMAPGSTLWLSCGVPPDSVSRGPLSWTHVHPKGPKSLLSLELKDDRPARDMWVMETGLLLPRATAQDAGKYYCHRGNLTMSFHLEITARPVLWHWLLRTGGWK
# Assay name: ELISA, antibody at 0.001 nM
Reported OD450 values are given for each entry in this list.
Hey, just send me the number, nothing else.

Some solved cases for reference:
F5.3.6 (antibody, human IgG1, V domains shown, human-murine chimeric antibody, human IgG1) VH: DVQLQESGPGLVKPSQSQSLTCSVTGYSITSGYYWNWIRQFPGNKLEWMGYISYDGSNNYNPSLKNRISITRDTSKNQFFLKLNSVTTEDTVTYYCARAPLTGDRYWYFDVWGTGTTVTVSS VL: DIVLTQSPASLAVSLGQRATISCRASQSVSTSSYSYMHWYQQKPGQTPKLLIKYASNLKSGVPARFSGSGSGTDFTLNIHPVEEEDTATYYCQHSWEIPPTFGGGTKLEIK: 0.06
F4.125.12 (antibody, human IgG1, V domains shown, human-murine chimeric antibody, human IgG1) VH: EVKLVESGGGLVQPGGSLKLSCAASGFTFSTYTMSWVRQTPEKRLEWVAFISSGGGHINYPDTVKGRFTISRDNAKNTLYLQMSSLKSEDTAMYYCARHSYWFFDVWGAGTTVTVSS VL: DVQITQSPSYLAASPGETITINCRASKNIDTYLAWYQEKPGKTNKLLIYSGSTLQSGIPSRFRGGGSGTDFTLTICSLEPEDFAMYYCQQHNEYPLTFGAGTKLELK: 0.09

Moving on to the next binder.
Exercise: Complete the entry with OD450 for F4.22.6 (antibody, human IgG1, V domains shown, human-murine chimeric antibody, human IgG1) VH: QVQLQQSGPELVKPGASVKISCKASGYAFSSFWMNWVKQRPGQGLEWIGRIYPGDGDTNYNGKFKGKATLTADKSSTTAYMHLSSLTSVDSAVYFCTRSVITAVVDWYFDVWGAGTTVTVSS VL: QIVLSQSPAILSASPGEKVTLTCRASSSVNFMHWYQQKPGSSPKPWIYATSNLASGAPARFSGSGSGTSYSLTISRVEAEDAAAYYCQQWSSYPIFTFGSGTKLEIK
Solution: 0.08
